# Target Of Assay: T24S MR (Pseudomonas putida, UniProt P11444, T24S)
# Sequence (P11444 whole entry T24S): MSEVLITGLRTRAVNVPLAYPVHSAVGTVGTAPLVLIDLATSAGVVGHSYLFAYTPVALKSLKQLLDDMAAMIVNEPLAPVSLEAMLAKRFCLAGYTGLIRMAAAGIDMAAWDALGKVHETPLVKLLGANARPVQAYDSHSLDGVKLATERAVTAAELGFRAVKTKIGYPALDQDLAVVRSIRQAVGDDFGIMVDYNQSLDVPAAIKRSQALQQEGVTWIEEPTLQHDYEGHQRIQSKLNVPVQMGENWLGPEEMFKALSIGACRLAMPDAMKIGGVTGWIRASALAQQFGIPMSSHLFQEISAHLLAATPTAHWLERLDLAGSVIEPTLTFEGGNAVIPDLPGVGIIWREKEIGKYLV
# Run Description: CD-based competitive inhibition of MR variant T24S
pKi: −log10 of the molar value.
Reported Property: pKi

O=C(NO)c1ccccc1 [benzohydroxamate]: 3.68

====

# Target Of Assay: V29A MR (Pseudomonas putida, UniProt P11444, V29A)
# Run Description: CD-based competitive inhibition of MR variant V29A
pKi: −log10 of the molar value.
Reported Property: pKi

O=C(NO)c1ccccc1 [benzohydroxamate]: 3.75

====

# Target Of Assay: V26A/V29L MR (Pseudomonas putida, UniProt P11444, V26A/V29L)
# Sequence (P11444 whole entry V26A/V29L): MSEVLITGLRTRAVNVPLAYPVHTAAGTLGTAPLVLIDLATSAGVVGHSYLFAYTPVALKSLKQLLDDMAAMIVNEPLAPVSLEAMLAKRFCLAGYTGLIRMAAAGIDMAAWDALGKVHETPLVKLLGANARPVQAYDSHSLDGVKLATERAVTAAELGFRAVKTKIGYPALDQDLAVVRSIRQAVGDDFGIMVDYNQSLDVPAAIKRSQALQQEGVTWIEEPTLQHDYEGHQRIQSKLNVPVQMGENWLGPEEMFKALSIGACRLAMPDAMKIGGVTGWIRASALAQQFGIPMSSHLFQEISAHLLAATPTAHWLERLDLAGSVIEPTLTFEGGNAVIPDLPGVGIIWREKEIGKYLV
# Run Description: CD-based competitive inhibition of MR variant V26A/V29L
Reported Property: Ki (µM)

O=C(NO)c1ccccc1 [benzohydroxamate]: 79.2

====

# Target Of Assay: V22I MR (Pseudomonas putida, UniProt P11444, V22I)
# Run Description: CD-based competitive inhibition of MR variant V22I
pKi: −log10 of the molar value.
Reported Property: pKi

O=C(NO)c1ccccc1 [benzohydroxamate]: 4.53

====

# Target Of Assay: V26F MR (Pseudomonas putida, UniProt P11444, V26F)
# Run Description: CD-based competitive inhibition of MR variant V26F
Reported Property: Ki (µM)

O=C(NO)c1ccccc1 [benzohydroxamate]: 462

====

# Target Of Assay: Y54F MR (Pseudomonas putida, UniProt P11444, Y54F)
# Run Description: CD-based competitive inhibition of MR variant Y54F
pKi: −log10 of the molar value.
Reported Property: pKi

O=C(NO)c1ccccc1 [benzohydroxamate]: 4.88

====

# Target Of Assay: V22F MR (Pseudomonas putida, UniProt P11444, V22F)
# Run Description: CD-based competitive inhibition of MR variant V22F
pKi: −log10 of the molar value.
Reported Property: pKi

O=C(NO)c1ccccc1 [benzohydroxamate]: 3.64

====

# Target Of Assay: V22A MR (Pseudomonas putida, UniProt P11444, V22A)
# Sequence (P11444 whole entry V22A): as the sequence (P11444 whole entry T24S) above, with V22A, S24T counted along it
# Run Description: CD-based competitive inhibition of MR variant V22A
pKi: −log10 of the molar value.
Reported Property: pKi

O=C(NO)c1ccccc1 [benzohydroxamate]: 2.97

====

# Target Of Assay: A25V MR (Pseudomonas putida, UniProt P11444, A25V)
# Sequence (P11444 whole entry A25V): as the sequence (P11444 whole entry V26A/V29L) above, with A25V, A26V, L29V counted along it
# Run Description: CD-based competitive inhibition of MR variant A25V
Reported Property: Ki

O=C(NO)c1ccccc1 [benzohydroxamate]: 611 µM

Provenance of the data: paper PMC3313677
